Test system: Haemophilus influenzae
Experiment: Antimicrobial activity against drug-susceptible Haemophilus influenzae 4 after 20 hrs by agar dilution method
Assay type: functional
Conditions: Haemophilus influenzae, 20 h; read-out: MIC
REPORTED PROPERTY: MIC
Please make sure the unit comes right after the number.

Sample answers from the record:
- COMPOUND: "CCOC(=O)[C@H]1[C@H](C)O[C@@H](O[C@H]2[C@H](N(C)C)[C@@H](O)[C@H](O[C@H]3[C@@H](CC=O)C[C@@H](C)[C@@H](O)CN(CCCCc4ccccc4)CCCCNC(=O)C[C@@H](OC(=O)CC)[C@@H]3OC)O[C@@H]2C)C[C@@]1(C)OC(C)=O"
  VALUE OBSERVED: "8 µg/mL"
- COMPOUND: "CCOC(=O)[C@H]1[C@H](C)O[C@@H](O[C@H]2[C@H](N(C)C)[C@@H](O)[C@H](O[C@H]3[C@@H](CC=O)C[C@@H](C)[C@@H](OC(C)=O)CN(CCCCc4ccccc4)CC[C@@H](C)OC(=O)C[C@@H](OC(=O)CC)[C@@H]3OC)O[C@@H]2C)C[C@@]1(C)OC(C)=O"
  VALUE OBSERVED: "16 µg/mL"
- COMPOUND: "CCC(=O)O[C@@H]1CC(=O)O[C@H](C)C/C=C/C=C/[C@H](OC(C)=O)[C@H](C)C[C@H](CC=O)[C@H](O[C@@H]2O[C@H](C)[C@@H](O[C@H]3C[C@@](C)(OC(C)=O)[C@@H](OC(=O)CC)[C@H](C)O3)[C@H](N(C)C)[C@H]2O)[C@H]1OC [MIOCAMYCIN]"
  VALUE OBSERVED: "16 µg/mL"

With those in mind, consider the next compound.
Task: Requested read-out: MIC. Entry: CCOC(=O)[C@H]1[C@H](C)O[C@@H](O[C@H]2[C@H](N(C)C)[C@@H](O)[C@H](O[C@H]3[C@@H](CC=O)C[C@@H](C)[C@@H](O)CN(C)CCC[C@H](CCCc4cnc5ccccc5c4)OC(=O)C[C@@H](OC(=O)CC)[C@@H]3OC)O[C@@H]2C)C[C@@]1(C)O
Result: 8 µg/mL

----------
System: Streptococcus pneumoniae
Assay: Antimicrobial activity against Streptococcus pneumoniae 10 expressing mefA after 20 hrs by agar dilution method
Assay type: functional
Settings: Streptococcus pneumoniae, 20 h; read-out: MIC
MIC: recorded values
// return numeric value only (unit: mg/L, not printed)

Sample answers from the record:
- COMPOUND: "CCOC(=O)[C@H]1[C@H](C)O[C@@H](O[C@H]2[C@H](N(C)C)[C@@H](O)[C@H](O[C@H]3[C@@H](CC=O)C[C@@H](C)[C@@H](O)CN(C)CCC[C@H](C/C=C/c4ccc5ncccc5c4)OC(=O)C[C@@H](OC(=O)CC)[C@@H]3OC)O[C@@H]2C)C[C@@]1(C)O"
  REPORTED PROPERTY: "MIC"
  UNIT STRING: "mg/L"
  VALUE OBSERVED: 0.03
- COMPOUND: "CCOC(=O)[C@H]1[C@H](C)O[C@@H](O[C@H]2[C@H](N(C)C)[C@@H](O)[C@H](O[C@H]3[C@@H](CC=O)C[C@@H](C)[C@@H](O)CN(C)CCC[C@H](C/C=C/c4cnc5ccccc5c4)OC(=O)C[C@@H](OC(=O)CC)[C@@H]3OC)O[C@@H]2C)C[C@@]1(C)O"
  REPORTED PROPERTY: "MIC"
  UNIT STRING: "mg/L"
  VALUE OBSERVED: 0.03

Task: Enter reported MIC observed with Streptococcus pneumoniae for CCOC(=O)[C@H]1[C@H](C)O[C@@H](O[C@H]2[C@H](N(C)C)[C@@H](O)[C@H](O[C@H]3[C@@H](CC=O)C[C@@H](C)[C@@H](O)CN(C)CCC(C/C=C/c4cnc5ccccc5c4)NC(=O)C[C@@H](OC(=O)CC)[C@@H]3OC)O[C@@H]2C)C[C@@]1(C)O (stereo in doubt; form 1)
Result: 0.13
